EXPERIMENT: Plasma pharmacokinetics and brain uptake of antrafenine in mice (LC-MS)
Format: in vivo, male C57BL/6 mice
CONDITIONS_USED: male, C57BL/6, mouse, brain, iv, 3 mg/kg, IV 3 mg/kg, 1 h, individual mice; read-out: B:P ratio Individual

| COMPOUND | Kp at 1 h |
| --- | --- |
| O=C(OCCN1CCN(c2cccc(C(F)(F)F)c2)CC1)c1ccccc1Nc1ccnc2cc(C(F)(F)F)ccc12 [antrafenine] | 0.14 |

* * *

EXPERIMENT: Plasma pharmacokinetics and brain uptake of antrafenine in mice (LC-MS)
Type: in vivo, male C57BL/6 mice
CONDITIONS_USED: male, C57BL/6, mouse, brain, iv, 1 mg/kg, IV 1 mg/kg, 1 h, n = 3; read-out: B:P ratio Mean ± SD

| COMPOUND | Kp at 1 h |
| --- | --- |
| O=C(OCCN1CCN(c2cccc(C(F)(F)F)c2)CC1)c1ccccc1Nc1ccnc2cc(C(F)(F)F)ccc12 [antrafenine] | 0.076 |

* * *

EXPERIMENT: Plasma pharmacokinetics and brain uptake of antrafenine in mice (LC-MS)
Format: in vivo, male C57BL/6 mice
CONDITIONS_USED: male, C57BL/6, mouse, brain, iv, 1 mg/kg, IV 1 mg/kg, 0.25 h, n = 3; read-out: Brain Parenchyma Concentration Mean ± SD

| ENTRY_SMILES | concentration at 0.25 h, nM |
| --- | --- |
| O=C(OCCN1CCN(c2cccc(C(F)(F)F)c2)CC1)c1ccccc1Nc1ccnc2cc(C(F)(F)F)ccc12 | 13.3 |

* * *

EXPERIMENT: Plasma pharmacokinetics and brain uptake of antrafenine in mice (LC-MS)
Format: in vivo, male C57BL/6 mice
CONDITIONS_USED: male, C57BL/6, mouse, plasma, iv, 1 mg/kg, plasma, IV administration at 1mg/kg; read-out: Apparent t1/2 (converted)

| ENTRY_SMILES | half-life (h) |
| --- | --- |
| O=C(OCCN1CCN(c2cccc(C(F)(F)F)c2)CC1)c1ccccc1Nc1ccnc2cc(C(F)(F)F)ccc12 | 7.3 |

* * *

EXPERIMENT: Plasma pharmacokinetics and brain uptake of antrafenine in mice (LC-MS)
Assay type: in vivo, male C57BL/6 mice
CONDITIONS_USED: male, C57BL/6, mouse, brain, iv, 3 mg/kg, IV 3 mg/kg, 4 hours after administration; read-out: concentration in the brain as percentage of that present in plasma
Procedure: Plasma pharmacokinetics and brain uptake of antrafenine was analyzed in male C57BL/6 mice. […] The concentration of antrafenine was determined using liquid chromatography–mass spectrometry. […] Plasma pharmacokinetics and brain uptake of antrafenine was analyzed in male C57BL/6 mice by the Monash University Centre for Drug Candidate Optimisation. […] The concentration of antrafenine was determined using liquid chromatography–mass spectrometry (LC-MS). […]
QUANTITY_KIND: Kp at 4 h

| ENTRY_SMILES | RESULT |
| --- | --- |
| O=C(OCCN1CCN(c2cccc(C(F)(F)F)c2)CC1)c1ccccc1Nc1ccnc2cc(C(F)(F)F)ccc12 | ~0.3 |

* * *

EXPERIMENT: Plasma pharmacokinetics and brain uptake of antrafenine in mice (LC-MS)
Assay type: in vivo, male C57BL/6 mice
CONDITIONS_USED: male, C57BL/6, mouse, brain, iv, 1 mg/kg, IV 1 mg/kg, 1 h, n = 3; read-out: Brain Parenchyma Concentration Mean ± SD
QUANTITY_KIND: concentration at 1 h (nM)

| COMPOUND | QUANTITY_KIND | NUMERIC_VALUE |
| --- | --- | --- |
| O=C(OCCN1CCN(c2cccc(C(F)(F)F)c2)CC1)c1ccccc1Nc1ccnc2cc(C(F)(F)F)ccc12 [antrafenine] | concentration at 1 h | 8.5 |

* * *

EXPERIMENT: Plasma pharmacokinetics and brain uptake of antrafenine in mice (LC-MS)
Assay type: in vivo, male C57BL/6 mice
CONDITIONS_USED: male, C57BL/6, mouse, brain, iv, 1 mg/kg, IV 1 mg/kg, 4 h, n = 3; read-out: B:P ratio Mean ± SD
QUANTITY_KIND: Kp at 4 h

| ENTRY_SMILES | RESULT |
| --- | --- |
| O=C(OCCN1CCN(c2cccc(C(F)(F)F)c2)CC1)c1ccccc1Nc1ccnc2cc(C(F)(F)F)ccc12 | 0.3 |

* * *

EXPERIMENT: Plasma pharmacokinetics and brain uptake of antrafenine in mice (LC-MS)
Format: in vivo, male C57BL/6 mice
CONDITIONS_USED: male, C57BL/6, mouse, brain, iv, 3 mg/kg, IV 3 mg/kg, 0.25 h, individual mice; read-out: Brain Parenchyma Concentration Individual

| ENTRY_SMILES | concentration at 0.25 h [nM] |
| --- | --- |
| O=C(OCCN1CCN(c2cccc(C(F)(F)F)c2)CC1)c1ccccc1Nc1ccnc2cc(C(F)(F)F)ccc12 | 31.1 |

* * *

// values below are reported IC50
TEST_SYSTEM: WT/Y796H KCNT1 channels (Homo sapiens, UniProt Q5JUK3, Y796H)
Construct: T2A self-cleaving motif ([…]) following the first subunit (C); expressed in transfected cells; host or cells: CHO cells
Sequence (Q5JUK3 1-1230): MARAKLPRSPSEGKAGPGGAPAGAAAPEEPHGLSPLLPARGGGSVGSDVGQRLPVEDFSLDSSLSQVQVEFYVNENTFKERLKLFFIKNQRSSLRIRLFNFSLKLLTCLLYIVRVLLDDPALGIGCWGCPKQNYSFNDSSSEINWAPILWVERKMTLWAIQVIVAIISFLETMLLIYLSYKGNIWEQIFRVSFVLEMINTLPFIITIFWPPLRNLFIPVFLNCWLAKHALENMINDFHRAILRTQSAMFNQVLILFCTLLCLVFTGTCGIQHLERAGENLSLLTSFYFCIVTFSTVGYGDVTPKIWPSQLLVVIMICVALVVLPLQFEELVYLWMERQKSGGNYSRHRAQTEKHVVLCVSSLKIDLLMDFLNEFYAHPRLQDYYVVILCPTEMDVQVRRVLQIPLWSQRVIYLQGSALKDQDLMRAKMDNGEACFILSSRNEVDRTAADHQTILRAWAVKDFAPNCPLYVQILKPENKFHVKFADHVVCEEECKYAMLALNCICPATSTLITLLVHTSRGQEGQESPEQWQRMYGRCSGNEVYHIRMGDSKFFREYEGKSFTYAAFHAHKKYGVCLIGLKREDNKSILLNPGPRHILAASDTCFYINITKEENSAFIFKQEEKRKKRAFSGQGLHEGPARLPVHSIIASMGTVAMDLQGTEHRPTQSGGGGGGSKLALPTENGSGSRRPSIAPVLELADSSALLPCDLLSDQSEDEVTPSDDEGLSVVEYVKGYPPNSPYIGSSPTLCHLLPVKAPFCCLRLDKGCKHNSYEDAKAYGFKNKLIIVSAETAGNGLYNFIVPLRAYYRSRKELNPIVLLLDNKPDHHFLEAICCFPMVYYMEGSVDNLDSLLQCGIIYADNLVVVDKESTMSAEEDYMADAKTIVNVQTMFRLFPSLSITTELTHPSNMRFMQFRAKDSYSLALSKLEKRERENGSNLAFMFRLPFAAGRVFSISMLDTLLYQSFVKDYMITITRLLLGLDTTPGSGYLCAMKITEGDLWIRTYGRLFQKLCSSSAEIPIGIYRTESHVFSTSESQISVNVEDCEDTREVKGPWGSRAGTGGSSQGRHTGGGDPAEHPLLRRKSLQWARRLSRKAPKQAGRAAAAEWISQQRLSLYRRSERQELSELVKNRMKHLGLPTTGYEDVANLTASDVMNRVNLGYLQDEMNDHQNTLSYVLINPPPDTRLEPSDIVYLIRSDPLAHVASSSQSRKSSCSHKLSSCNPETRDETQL
Sequence (Q5JUK3 2-1230 Y796H limits assumed): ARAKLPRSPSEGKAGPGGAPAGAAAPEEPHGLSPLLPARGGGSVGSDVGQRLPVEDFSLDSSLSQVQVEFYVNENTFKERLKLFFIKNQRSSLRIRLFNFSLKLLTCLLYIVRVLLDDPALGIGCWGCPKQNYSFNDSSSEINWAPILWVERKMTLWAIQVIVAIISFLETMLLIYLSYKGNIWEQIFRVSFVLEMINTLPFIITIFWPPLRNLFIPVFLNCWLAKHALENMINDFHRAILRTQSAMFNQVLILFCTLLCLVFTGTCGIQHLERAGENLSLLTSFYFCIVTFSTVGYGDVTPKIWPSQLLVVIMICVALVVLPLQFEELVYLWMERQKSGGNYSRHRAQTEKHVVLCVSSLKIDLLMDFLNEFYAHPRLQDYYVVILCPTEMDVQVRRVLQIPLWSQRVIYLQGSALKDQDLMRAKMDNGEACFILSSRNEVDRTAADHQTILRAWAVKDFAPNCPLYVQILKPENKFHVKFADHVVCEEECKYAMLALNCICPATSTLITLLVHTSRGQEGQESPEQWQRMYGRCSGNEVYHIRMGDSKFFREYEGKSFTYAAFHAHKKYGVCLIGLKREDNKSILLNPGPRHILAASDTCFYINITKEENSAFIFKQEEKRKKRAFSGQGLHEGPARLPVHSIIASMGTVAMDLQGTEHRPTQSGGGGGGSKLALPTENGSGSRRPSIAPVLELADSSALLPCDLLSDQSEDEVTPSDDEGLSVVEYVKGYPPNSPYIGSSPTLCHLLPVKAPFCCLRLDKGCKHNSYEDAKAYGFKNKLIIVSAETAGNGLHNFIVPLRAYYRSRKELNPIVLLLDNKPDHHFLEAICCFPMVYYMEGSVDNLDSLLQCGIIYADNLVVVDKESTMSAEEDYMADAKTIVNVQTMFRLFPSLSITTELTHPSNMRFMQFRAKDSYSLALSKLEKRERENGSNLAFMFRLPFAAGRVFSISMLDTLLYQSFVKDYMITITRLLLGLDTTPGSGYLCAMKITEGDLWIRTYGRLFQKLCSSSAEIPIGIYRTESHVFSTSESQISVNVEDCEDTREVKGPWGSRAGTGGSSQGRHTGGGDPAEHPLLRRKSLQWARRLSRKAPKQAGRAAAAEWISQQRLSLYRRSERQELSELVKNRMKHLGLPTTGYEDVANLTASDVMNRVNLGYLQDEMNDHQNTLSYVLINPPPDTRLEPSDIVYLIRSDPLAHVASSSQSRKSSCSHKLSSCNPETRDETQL
EXPERIMENT: Whole-cell patch clamp of WT/Y796H KCNT1 channels expressed in CHO cells
Type: cell-based
CONDITIONS_USED: whole-cell patch clamp, CHO cells, concentration-inhibition analysis; read-out: mean ± SEM IC50
Structures can show the parent of a compound that is named as a salt.
QUANTITY_KIND: IC50 (µM)

| MOLECULE | TEST_SYSTEM | QUANTITY_KIND | NUMERIC_VALUE |
| --- | --- | --- | --- |
| Cc1c(O)cccc1C(=O)N[C@@H](CSc1ccccc1)[C@H](O)CN1C[C@H]2CCCC[C@H]2C[C@H]1C(=O)NC(C)(C)C [nelfinavir mesylate] | WT/Y796H KCNT1 channels (Homo sapiens, UniProt Q5JUK3, Y796H) | IC50 | 2.86 |
| CC(C)c1c(C(=O)Nc2ccccc2)c(-c2ccccc2)c(-c2ccc(F)cc2)n1CC[C@@H](O)C[C@@H](O)CC(=O)O [atorvastatin] | WT/Y796H KCNT1 channels (Homo sapiens, UniProt Q5JUK3, Y796H) | IC50 | 7.54 |
| CNC(=O)c1cc(Oc2ccc(NC(=O)Nc3ccc(Cl)c(C(F)(F)F)c3)c(F)c2)ccn1 [regorafenib] | WT/Y796H KCNT1 channels (Homo sapiens, UniProt Q5JUK3, Y796H) | IC50 | 10.3 |
